Tgt: Peptide 1: Biotin-…-[Tyr(PC)]-acid
Sequence (peptide, as listed by the source): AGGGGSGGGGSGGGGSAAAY
Test description: scFv ELISA
Property name: OD450 (OD450)
Report only the number, with the unit OD450 understood.

Input line: Given PcOxP_DB03_B06 (scFv, V domains shown, scFv in periplasmic extract) VH: EVQLLESGGGLVQPGGSLRLSCAASGITFSDFYMEWVRQAPGKGLEWVAASRNKYNDYTTEYADSVKGRFTISRDNSKNTLYLQMNSLRAEDTAVYYCARDYYGSSYWYFDVWGQGTLVTVSS VL: DIVMTQSPDSLAVSLGERATINCTASESLYSSKHKVHYLAWYQQKPGQPPKLLIYGASNRYTGVPDRFSGSGSGTDFTLTISSLQAEDVAVYYCAQFYSYPLTFGGGTKVEIK , respond with its OD450.
Output line: 0.68

Input line: // fetch OD450 given entry PcOxP_DB01_A06 (scFv, V domains shown, scFv in periplasmic extract) VH: EVQLLESGGGLVQPGGSLRLSCAASGFTFSDYYMEWVRQAPGKGLEWVAASRNKANDYTTEYADSVKGRFTISRDNSKNTLYLQMNSLRAEDTAVYYCARDYYGSSYWYFDVWGQGTLVTVSS VL: DIQMTQSPSSLSASVGDRVTITCTASESLYSSKHKVHYLAWYQQKPGKAPKLLIYGASNRYIGVPSRFSGSGSGTDFTLTISSLQPEDFATYYCAEFYSYPLTFGGGTKVEIK
Output line: 0.74

Input line: Return reported OD450. Input binder: PcOxP_DB02_H03 (scFv, V domains shown, scFv in periplasmic extract) VH: EVQLLESGGGLVQPGGSLRLSCAASGFTFSDFYMEWVRQAPGKGLEWVAASRNKANDYTTEYADSVKGRFTISRDNSKNTLYLQMNSLRAEDTAVYYCARDYYGSSYWYFDVWGQGTLVTVSS VL: DIQMTQSPSSLSASVGDRVTITCTASESISSSKHKVHYLAWYQQKPGKAPKLLIYGASNLYSGVPSRFSGSGSGTDFTLTISSLQPEDFATYYCAHFYSYPLTFGGGTKVEIK
Output line: 0.27

Input line: Supply reported OD450 belonging to this binder: PcOxP_DB02_H08 (scFv, V domains shown, scFv in periplasmic extract) VH: EVQLLESGGGLVQPGGSLRLSCAASGFTFSDAYMEWVRQAPGKGLEWVAASRNKANDYTTEYADSVKGRFTISRDNSKNTLYLQMNSLRAEDTAVYYCARDYYGSHYWYFDVWGQGTLVTVSS VL: DIVMTQSPDSLAVSLGERATINCTSSQSLYSSKHNKHYLAWYQQKPGQPPKLLIYGASNRYIGVPDRFSGSGSGTDFTLTISSLQAEDVAVYYCAQFYSYPLTFGGGTKVEIK
Output line: 0.4

Input line: Let me know recorded OD450 for PcOxP_DB03_H10 (scFv, V domains shown, scFv in periplasmic extract) VH: EVQLLESGGGLVQPGGSLRLSCAASGFTFDDFYMEWVRQAPGKGLEWVAASRNEANDYTTEYADSVKGRFTISRDNSKNTLYLQMNSLRAEDTAVYYCARDYYGSSYWYFDVWGQGTLVTVSS VL: DIVMTQSPDSLAVSLGERATINCTASESLYSSKHKVHYLAWYQQKPGQPPKLLIYGAGNRYIGVPDRFSGSGSGTDFTLTISSLQAEDVAVYYCAQFYHYPLTFGGGTKVEIK , thanks.
Output line: 0.24

The measurements presented in this section are drawn from patent US20250320312A1.
